# Tested system: Focal adhesion kinase 1 (Homo sapiens)
# Method: Activation of FAK in human Caco-2 cells assessed as fold increase in FAK Tyr397 phosphorylation at 10 nM incubated for 1 hr by Western blot analysis relative to control
# Type: cell-based
# Condition info: filed as activator
Experimental endpoint: fold change (FC)

CN(C)C(CNC(=O)Nc1cc(C(F)(F)F)ccc1N1CCOCC1)c1ccccc1 (stereo not drawn) :: 1
O=C(Nc1cc(C(F)(F)F)ccc1N1CCOCC1)N1CCCC1c1ccccc1 (stereo not drawn) :: 1.4
COc1ccc(C(CNC(=O)Nc2cc(C(F)(F)F)ccc2N2CCOCC2)N(C)C)cc1 (stereo not drawn) :: 1.4

====

# Tested system: Focal adhesion kinase 1 (Homo sapiens) (UniProt Q05397)
# Sequence (Q05397 2-1052 limits assumed): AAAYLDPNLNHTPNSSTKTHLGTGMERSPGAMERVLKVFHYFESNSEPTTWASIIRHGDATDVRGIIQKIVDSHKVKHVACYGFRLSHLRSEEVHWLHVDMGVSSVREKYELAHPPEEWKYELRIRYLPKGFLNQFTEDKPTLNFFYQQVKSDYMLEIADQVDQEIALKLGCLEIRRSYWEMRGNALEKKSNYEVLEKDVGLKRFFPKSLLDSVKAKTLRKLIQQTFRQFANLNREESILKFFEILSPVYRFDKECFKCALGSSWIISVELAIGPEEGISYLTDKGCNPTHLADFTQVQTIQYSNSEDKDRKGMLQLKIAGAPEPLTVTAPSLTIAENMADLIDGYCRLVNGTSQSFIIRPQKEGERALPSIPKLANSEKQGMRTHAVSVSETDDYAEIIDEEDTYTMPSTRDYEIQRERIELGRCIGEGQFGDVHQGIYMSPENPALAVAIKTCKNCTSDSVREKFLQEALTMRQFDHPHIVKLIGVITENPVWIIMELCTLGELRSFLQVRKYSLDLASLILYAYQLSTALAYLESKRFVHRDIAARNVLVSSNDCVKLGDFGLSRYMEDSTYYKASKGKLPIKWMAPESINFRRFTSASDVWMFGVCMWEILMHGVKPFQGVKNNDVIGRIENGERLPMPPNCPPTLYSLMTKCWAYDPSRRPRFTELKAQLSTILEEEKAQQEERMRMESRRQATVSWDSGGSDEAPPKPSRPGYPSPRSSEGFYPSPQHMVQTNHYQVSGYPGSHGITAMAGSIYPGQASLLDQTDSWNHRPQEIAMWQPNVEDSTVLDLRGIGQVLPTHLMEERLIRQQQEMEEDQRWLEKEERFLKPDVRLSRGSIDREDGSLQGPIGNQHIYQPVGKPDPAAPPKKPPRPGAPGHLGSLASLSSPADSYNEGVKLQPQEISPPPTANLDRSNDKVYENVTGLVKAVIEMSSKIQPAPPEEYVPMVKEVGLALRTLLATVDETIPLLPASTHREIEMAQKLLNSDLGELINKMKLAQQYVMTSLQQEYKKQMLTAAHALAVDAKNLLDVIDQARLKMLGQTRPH
# Method: Activation of FAK in human Caco-2 cells assessed as fold increase in FAK Tyr397 phosphorylation at 10 nM incubated for 1 hr by Western blot analysis relative to control
# Type: cell-based
# Condition info: filed as activator
Experimental endpoint: fold change (FC)

O=C(Nc1cc(C(F)(F)F)ccc1N1CCOCC1)N1CCCC1c1ccc(O)cc1 (stereo not given) :: 1.1
O=C(Nc1ccccc1N1CCOCC1)N1CCCC1c1ccncc1 (stereo not given) :: 1.1
O=C(Nc1cc(C(F)(F)F)ccc1N1CCS(=O)(=O)CC1)N1CCCC1c1ccncc1 (stereo not given) :: 1
CC1CN(c2ccc(C(F)(F)F)cc2NC(=O)N2CCCC2c2ccncc2)CC(C)O1 (stereo not given) :: 1
CN1CCN(c2ccc(C(F)(F)F)cc2NC(=O)N2CCCC2c2ccncc2)CC1 (stereo not given) :: 0.9
